Tested on: SU-DHL-5 (B-Cell Non-Hodgkin's Lymphoma)
Assay: Bliss excess, mean over the matrix (fraction); higher = more synergy;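 also: after 72 h of two-drug dosing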
Collected Bliss excess values appear next to each entry.
Write the number on its own, no unit after it.

| molecule | measurement-target | Bliss excess |
| --- | --- | --- |
| Cc1cc2ncnn2cc1Nc1ncc2c(n1)n(C1CCOCC1)c(=O)n2C [AZD7648] + O=C(c1cc(Cc2n[nH]c(=O)c3ccccc23)ccc1F)N1CCN(C(=O)C2CC2)CC1 [Olaparib] (first compound max 10 µM, 7x7, partner max 10 µM) | SU-DHL-5 (B-Cell Non-Hodgkin's Lymphoma) | 0.0091 |

query: Supply measured Bliss excess of CCN(CCO)CCCOc1ccc2c(Nc3cc(CC(=O)Nc4cccc(F)c4)[nH]n3)ncnc2c1 [AZD2811] + C=CCn1c(=O)c2cnc(Nc3ccc(N4CCN(C)CC4)cc3)nc2n1-c1cccc(C(C)(C)O)n1 [AZD1775] (first compound max 1 µM, partner max 1 µM) in your reply.
result: -0.0309

query: Supply measured Bliss excess of Cc1c2c(nn1C)CSCc1cc(n(C)n1)CSc1cc(c3ccccc3c1)OCCCc1c(C(=O)O)n(C)c3c-2c(Cl)ccc13 [AZD5991] + CC1(C)CCC(CN2CCN(c3ccc(C(=O)NS(=O)(=O)c4ccc(NCC5CCOCC5)c([N+](=O)[O-])c4)c(Oc4cnc5[nH]ccc5c4)c3)CC2)=C(c2ccc(Cl)cc2)C1 [Venetoclax] (first compound max 1 µM, 7x7, partner max 1 µM) in your reply.
result: -0.0379

---

Test system: NCI-H929 (Plasma Cell Myeloma)
Test: Bliss excess, mean over the matrix (fraction); higher = more synergy
reported-property: Bliss excess
Write the number on its own, no unit after it.

query: Supply measured Bliss excess of COc1cccc(OCCCN)c1-c1cc(Nc2cnc(C#N)cn2)n[nH]1 [Prexasertib] + O=C(c1cc(Cc2n[nH]c(=O)c3ccccc23)ccc1F)N1CCN(C(=O)C2CC2)CC1 [Olaparib] (first compound max 1 µM, 7x7, partner max 10 µM) in your reply.
result: -0.0638

---

Tested on: KU812 (Chronic Myelogenous Leukemia)
Experiment: Bliss excess, mean over the matrix (fraction); higher = more synergy
Collected Bliss excess values appear next to each entry.
Write the number on its own, no unit after it.

Before answering, review these 2 worked examples.
| compound | measurement-target | reported-property | measured-result |
| --- | --- | --- | --- |
| COc1nnc2ccc(N3CCC(c4ccc(OCCN5CCN(C)C(=O)[C@H]5C)cc4)CC3)nn12 [AZD5153] + CC1(C)CCC(CN2CCN(c3ccc(C(=O)NS(=O)(=O)c4ccc(NCC5CCOCC5)c([N+](=O)[O-])c4)c(Oc4cnc5[nH]ccc5c4)c3)CC2)=C(c2ccc(Cl)cc2)C1 [Venetoclax] (first compound max 1 µM, 7x7, partner max 1 µM) | KU812 (Chronic Myelogenous Leukemia) | Bliss excess | -0.058 |
| CN(C)CCCOc1ccc(-c2ccc3ncc4c(c3c2)n(C2CCOCC2)c(=O)n4C)cn1 [AZD0156] + CCN(CCO)CCCOc1ccc2c(Nc3cc(CC(=O)Nc4cccc(F)c4)[nH]n3)ncnc2c1 [AZD2811] (first compound max 1 µM, 7x7, partner max 1 µM) | KU812 (Chronic Myelogenous Leukemia) | Bliss excess | -0.0158 |

query: Supply measured Bliss excess of CC1(C)CCC(CN2CCN(c3ccc(C(=O)NS(=O)(=O)c4ccc(NCC5CCOCC5)c([N+](=O)[O-])c4)c(Oc4cnc5[nH]ccc5c4)c3)CC2)=C(c2ccc(Cl)cc2)C1 [Venetoclax] + COc1cc(Nc2ncc3c(n2)-c2ccc(Cl)cc2C(c2c(F)cccc2OC)=NC3)ccc1C(=O)O [Alisertib] (first compound max 1 µM, 7x7, partner max 10 µM) in your reply.
result: -0.0121
